- Tested on: HOP-92
- assay-explanation: NCI tumour cell line growth inhibition, 48 h
Active and inactive are the calls of the source. Rule as the data show it: active = GI50 up to about 1.1 µM and inactive = higher.
assay-endpoint: GI50

compound | value-measured
C/C(=N\NS(=O)(=O)c1ccc(C)cc1)C(CN1CCCCC1)C(c1ccccc1)c1c(O)c2ccccc2oc1=O (stereo not drawn) | 95.7 µM (inactive)
CC(C)(C)CC(C)(C)c1cc2c(O)c(c1)Cc1cc(C(C)(C)CC(C)(C)C)cc(c1O)Cc1cc(C(C)(C)CC(C)(C)C)cc(c1O)Cc1cc(C(C)(C)CC(C)(C)C)cc(c1O)Cc1cc(C(C)(C)CC(C)(C)C)cc(c1O)Cc1cc(C(C)(C)CC(C)(C)C)cc(c1O)C2 | > 100 µM (inactive)
COc1cc2ccc1OCc1cccc(n1)COc1ccc(cc1OC)/C=N\CCNCCNCC/N=C\2 | > 100 µM (inactive)
CC1=N/C(=C\c2ccc([N+](=O)[O-])cc2)C(=O)O1 | > 100 µM (inactive)
CCOC(=O)/C(=C\NCC(OCC)OCC)c1nc2ccccc2[nH]1 | 35.6 µM (inactive)

For each of the compounds below, note its GI50.
1. Oc1ccc2ccccc2c1CN(Cc1c(O)ccc2ccccc12)C1CCCCC1
2. O=S1(=O)c2ccccc2Oc2ccc(C(/C=N/O)=N/O)cc21
3. CCCCCC#COC1CC(C)CC[C@@H]1C(C)C (stereo partly drawn)

["18 µM (inactive)", "45.2 µM (inactive)", "> 100 µM (inactive)"]

----------
- Test system: NCI-H23
- assay-explanation: NCI tumour cell line growth inhibition, 48 h
Where a name gives a salt, the structure may show the parent alone. Activity calls are given as the source filed them. No stated cut-off is given here; in the data, active = GI50 up to about 1.1 µM and inactive = higher.
assay-endpoint: GI50

These solved cases illustrate the format of a correct answer.
compound | GI50
CCOC(=O)COc1ccc(/C=C/C(=O)c2ccc(OC)cc2)cc1 | 25.8 µM (inactive)
CCc1ccc(Cc2ccc(CC)c(NC(=O)C(=O)Cc3nc4ccccc4nc3C)c2CC)c(CC)c1NC(=O)C(=O)Cc1nc2ccccc2nc1C | > 100 µM (inactive)
N#Cc1nc(-c2cccc(-c3nc(C#N)c(N)o3)n2)oc1N | > 100 µM (inactive)
O=C1NC2=NN=C(c3ccc(Br)cc3)CN2NC12c1ccccc1-c1ccccc12 | > 100 µM (inactive)
COc1ccc(/C=C/c2sc3ccccc3[n+]2CCCCI)cc1OC | > 10 µM (inactive)

For each of the compounds below, note its GI50.
1. O=C(NCCCCCCCCNC(=O)Nc1cccc2ccccc12)Nc1cccc2ccccc12
2. NC(CCCNCc1ccccc1)C(=O)O (stereo unspecified)
3. O=c1c2cc(I)ccc2nc(SCc2nncs2)n1Cc1ccccc1

1. 30.4 µM (inactive)
2. > 100 µM (inactive)
3. 25.6 µM (inactive)

For each of the compounds below, note its GI50.
1. CCN(CC)C(=O)CCCCCCCCC1CO1 (stereo unspecified)
2. O=C(O)c1ccc(N/C(=C(/C(Cl)=C(Cl)Cl)[N+](=O)[O-])n2nnc3ccccc32)cc1
3. CC(C)OP(=O)(OC(C)C)c1ncn(-c2ccc([N+](=O)[O-])cc2)n1
4. COCN/C(N)=N/C#N
5. CC1(C)CC(=O)C(CCC(=O)/C=C/c2ccccc2)C(=O)C1

1. > 100 µM (inactive)
2. > 100 µM (inactive)
3. > 100 µM (inactive)
4. > 100 µM (inactive)
5. > 100 µM (inactive)

For each of the compounds below, note its GI50.
1. C/C(=C\c1ccccc1)C(=O)CCN1CCOCC1
2. COc1ccc(Nc2nc3cc(C(F)(F)F)ccc3nc2-c2ccccc2)cc1OC
3. Cc1ccccc1C(CCCO)C(=O)O (stereo unspecified)
4. CC(=O)O[C@H]1CC[C@@]2(C)C(=CC[C@@H]3[C@@H]2CC[C@]2(C)c4c(cc(C#N)c(=N)n4C(C)=O)C[C@@H]32)C1
5. CC(C)(C)[Si](C)(C)Oc1ccc(C2CNC(=O)C23CCC(=O)N3Cc2ccccc2)cc1 (stereo unspecified)
6. COc1ccc(C(O)/C(=N\NC(N)=S)c2nc3ccc([N+](=O)[O-])cc3nc2O)cc1OC (stereo unspecified)

1: 16.9 µM (inactive); 2: 25.7 µM (inactive); 3: > 100 µM (inactive); 4: 15.3 µM (inactive); 5: 11.4 µM (inactive); 6: > 100 µM (inactive)

For each of the compounds below, note its GI50.
1. C1=C(c2ccccc2)SC=C(c2ccccc2)S1
2. CNCCC=C1c2ccccc2CCc2ccccc21 [NORTRIPTYLINE HYDROCHLORIDE]
3. c1ccc2c(c1)cc1ccc3cccc4ccc2c1c34

1. 72.8 µM (inactive)
2. 15.7 µM (inactive)
3. > 100 µM (inactive)

For each of the compounds below, note its GI50.
1. Cc1c(C)c(C)c(CSC(=N)N)c(C)c1C
2. COC12OCCN(C)C1=CC(=O)C1=NNC(C)C12 (stereo unspecified)
3. Cc1ccc(S(=O)(=O)N[C@@H](Cc2ccccc2)C(=O)CCl)cc1
4. CS(=O)(=O)Sc1ccc(Cl)cc1
5. CC(C)(C)CC(C)(C)c1cc2c(O)c(c1)Cc1cc(C(C)(C)CC(C)(C)C)cc(c1O)Cc1cc(C(C)(C)CC(C)(C)C)cc(c1O)Cc1cc(C(C)(C)CC(C)(C)C)cc(c1O)Cc1cc(C(C)(C)CC(C)(C)C)cc(c1O)Cc1cc(C(C)(C)CC(C)(C)C)cc(c1O)C2
6. COc1cc(C2SCC(=O)N2c2ccc(Cl)cc2)cc(OC)c1OC (stereo unspecified)

1. 16.5 µM (inactive)
2. > 100 µM (inactive)
3. 13.6 µM (inactive)
4. 13.8 µM (inactive)
5. > 100 µM (inactive)
6. 26.2 µM (inactive)

For each of the compounds below, note its GI50.
1. COc1ccc(C2=NN(C(C)=O)c3nc4ccccc4nc3O2)cc1
2. COC(=O)C1CCC(=S)N1C(=O)OCc1ccccc1 (stereo unspecified)
3. CC1=NCCc2c1[nH]c1cc(O)ccc21 [HARMALOL HYDROCHLORIDE]
4. O=C(NC1CCN(Cc2ccccc2)CC1)c1ccc(I)cc1

["55.2 µM (inactive)", "> 100 µM (inactive)", "> 100 µM (inactive)", "94.2 µM (inactive)"]

For each of the compounds below, note its GI50.
1. COc1cc2c(cc1OC)C1Cc3cc(OC)c(OC)cc3C(C2)O1
2. Cc1sc(/N=C/c2c[nH]c3ccccc23)c(C#N)c1C
3. O=C(O)CCNCCCCNCCC(=O)O
4. O=C1N[C@@H]2O[C@H](CNC(=O)c3cc(Br)c[nH]3)C[C@]2(O)N1.O=C1N[C@H]2O[C@H](CNC(=O)c3cc(Br)c[nH]3)C[C@@]2(O)N1
5. CC(=O)OC1CC2C(C)(C)C(=O)C=C[C@]2(C)C2CCC3(C)C(=CCC3[C@H](CO)C[C@H](O)C(=O)C(C)(C)O)[C@]12C (stereo partly specified)
6. CN(C)CC/C(=N\Nc1ccc([N+](=O)[O-])cc1)c1ccccc1
7. CC1C(=O)C23OC[C@@]1(C)C1(O)CC[C@@H](C)[C@]21CC3=O (stereo partly specified)
8. O=C(Nc1nnc(-c2ccc(Cl)cc2)o1)C(SC(=S)N1CCOCC1)c1ccccc1 (stereo unspecified)

> 100 µM (inactive)
54.1 µM (inactive)
> 100 µM (inactive)
> 100 µM (inactive)
> 10 µM (inactive)
13.3 µM (inactive)
> 100 µM (inactive)
20.9 µM (inactive)

Suppose we examine the compound `O=C(Nc1ccccc1)O/N=C(/CBr)c1ccccc1` ; what GI50 value has been reported?
7.35 µM (inactive)

----------
- Test system: ACHN
- assay-explanation: NCI tumour cell line growth inhibition, 48 h
Activity calls are given as the source filed them. Cut-off read from the data, not from the text of the source: active = GI50 up to about 1.1 µM and inactive = higher.
I'd appreciate it if you could supply GI50 values for the items below.

These solved cases illustrate the format of a correct answer.
compound | GI50
Nc1nc(Cl)c2ncn(CCCC(c3ccccc3)P(=O)(O)O)c2n1 (configuration not stated) | > 100 µM (inactive)
COc1cc2c(cc1OC)C1Cc3cc(OC)c(OC)cc3C(C2)O1 | > 100 µM (inactive)
C/C(=N\NC(=O)CC#N)c1c(O)cc(C)oc1=O | > 100 µM (inactive)
c1ccc2c(c1)cc1ccc3cccc4ccc2c1c34 | > 100 µM (inactive)
COc1cc(/C=C/C(=O)c2sc(NNC(C)=O)nc2C)ccc1O | > 100 µM (inactive)
CC(=O)OC12CC(C(F)(F)F)(C(F)(F)F)OC1(OC(C)=O)CC(C(F)(F)F)(C(F)(F)F)O2 (configuration not stated) | 0.287 µM (active)

For each of the compounds below, note its GI50.
1. N#Cc1ncn(-c2ccccc2)c1N
2. CC(C)(C)[Si](C)(C)Oc1ccc(C2CNC(=O)C23CCC(=O)N3Cc2ccccc2)cc1 (configuration not stated)
3. O=C1NC2OCC(O)C(O)C2O1 (configuration not stated)
4. Nc1c(S(=O)(=O)O)cc(S(=O)(=O)O)c2ccc(/N=N/c3ccccc3)c(O)c12
5. Cc1sc(/N=C/c2c[nH]c3ccccc23)c(C#N)c1C
6. O=C1[C@H]2ON(c3ccccc3)C(c3cccc([N+](=O)[O-])c3)[C@H]2C(=O)N1c1ccc(Cc2ccc(N3C(=O)[C@@H]4ON(c5ccccc5)C(c5cccc([N+](=O)[O-])c5)[C@@H]4C3=O)cc2)cc1 (some centres not stated)
7. COc1cccc(C(C#N)NC23CC4CC(CC(C4)C2)C3)c1 (configuration not stated)
8. N#CC1(N2CCCC2)CCC2(CC1)OCCO2

["> 100 µM (inactive)", "15 µM (inactive)", "> 100 µM (inactive)", "> 100 µM (inactive)", "29.6 µM (inactive)", "> 100 µM (inactive)", "> 100 µM (inactive)", "> 100 µM (inactive)"]

Ref: ChEMBL document CHEMBL1201862
